Target: S. aureus DltA (Staphylococcus aureus)
Sequence (Q2FZW6 1-485): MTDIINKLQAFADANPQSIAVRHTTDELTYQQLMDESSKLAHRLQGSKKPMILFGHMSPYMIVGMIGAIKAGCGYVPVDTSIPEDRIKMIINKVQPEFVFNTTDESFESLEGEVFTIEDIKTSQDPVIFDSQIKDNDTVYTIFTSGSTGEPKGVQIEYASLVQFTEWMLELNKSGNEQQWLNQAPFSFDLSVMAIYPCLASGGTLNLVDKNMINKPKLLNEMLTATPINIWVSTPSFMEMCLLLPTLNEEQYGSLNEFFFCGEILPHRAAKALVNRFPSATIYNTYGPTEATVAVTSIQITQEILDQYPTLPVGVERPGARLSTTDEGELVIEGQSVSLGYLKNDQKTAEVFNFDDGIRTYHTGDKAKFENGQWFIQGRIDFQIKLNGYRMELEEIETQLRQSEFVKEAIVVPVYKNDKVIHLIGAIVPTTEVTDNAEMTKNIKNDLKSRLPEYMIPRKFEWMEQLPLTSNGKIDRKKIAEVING
Structures can show the parent of a compound that is named as a salt.
PARAMETER MEASURED: log10(IC50) (log10 of the value in nM)
Quick note: numbers are log10 of IC50, with nM as the unit.

Field: example entries. Status: answers known.
# COMPOUND, OBS VALUE
records = [
    ("O=c1[nH]cnc2c(-c3ccc4c(c3)ncn4C3CCCCC3)cn(C3CCNCC3)c12 [Example 73]", 1.86),
    ("O=c1[nH]cnc2c(-c3ccc4c(c3)ncn4C3CCCCC3)sc(N3CC4CNCC4(CO)C3)c12 (stereo not shown) [Example 34, hydrochloride]", 1.43),
    ("O=c1[nH]cnc2c(-c3ccc4c(c3)ncn4C3CCCCC3)sc(N3C[C@H](CO)[C@@H](CO)C3)c12 [Example 35]", 1.73),
    ("O=c1[nH]cnc2c(-c3ccc4c(c3)ncn4C3CCCCC3)cn(C3CCC(O)C3)c12 (racemic) [Example 71A]", 2.56),
    ("O=c1[nH]cnc2c(-c3ccc4c(c3)ncn4C3CCCCC3)cn(C3CCNC3)c12 (stereo not shown) [Example 77]", 1.97),
    ("O=c1[nH]cnc2c(-c3ccc4c(c3)ncn4C3CCCCC3)sc(N3CC4CNCC4C3)c12 (stereo not shown) [Example 25, hydrochloride]", 1.59),
]

Shifting focus to the compound that follows.
Entry O=c1[nH]cnc2c(-c3ccc4c(c3)ncn4C3CCCCC3)cn(CCCCCO)c12 [Example 68] , system S. aureus DltA (Staphylococcus aureus): what log10(IC50) was measured?
2.46
